Collected from the literature: IC50 of various molecules toward Poly [ADP-ribose] polymerase tankyrase-1 (Homo sapiens).
Flag rule - IC50 less than 0.1 µM flags MET; the remaining entries get NOT MET.

| STRUCTURE_STRING | CAT |
| --- | --- |
| NC(=O)c1ccc(OCC2CCC2)cc1 | NOT MET |
| Cc1cccc2c(=O)[nH]c(-c3ccc(O)cc3)nc12 | MET |
| O=C1Nc2cccc(F)c2C12CCN(c1nc3c(c(=O)[nH]1)CCCC3)CC2 | MET |
| COc1ccc(C2(CNC(=O)c3ccc(NC(=O)c4ccco4)cc3Cl)CCOCC2)cc1 | NOT MET |
| O=C1Nc2cc(F)ccc2C12CCN(c1nc3c(c(=O)[nH]1)CCCC3)CC2 | MET |
| N#Cc1ccccc1Cn1c(=O)n(C[C@H]2CC[C@H](C(=O)NCc3ccccc3)CC2)c(=O)c2ccccc21 | NOT MET |
| CN1CCCc2c1nc(N1CCC3(CC1)C(=O)N(C)c1cc(N4CCNCC4)cc(F)c13)[nH]c2=O | MET |
| O=c1[nH]c(CN(Cc2cccs2)S(=O)(=O)CCc2ccccc2)nc2c1COCC2 | NOT MET |
| COc1ccccc1N1CCN(c2nc3c(c(=O)[nH]2)CN(C)CC3)CC1 | NOT MET |
| O=c1[nH]c(N2CCC3(CC2)CN(CCO)c2ccccc23)nc2c1CCCC2 | MET |
